subject_of_test: ROS1 (Homo sapiens, UniProt P08922)
Construct: purchased Carna Biosciences 08-163
Sequence (P08922 28-2347): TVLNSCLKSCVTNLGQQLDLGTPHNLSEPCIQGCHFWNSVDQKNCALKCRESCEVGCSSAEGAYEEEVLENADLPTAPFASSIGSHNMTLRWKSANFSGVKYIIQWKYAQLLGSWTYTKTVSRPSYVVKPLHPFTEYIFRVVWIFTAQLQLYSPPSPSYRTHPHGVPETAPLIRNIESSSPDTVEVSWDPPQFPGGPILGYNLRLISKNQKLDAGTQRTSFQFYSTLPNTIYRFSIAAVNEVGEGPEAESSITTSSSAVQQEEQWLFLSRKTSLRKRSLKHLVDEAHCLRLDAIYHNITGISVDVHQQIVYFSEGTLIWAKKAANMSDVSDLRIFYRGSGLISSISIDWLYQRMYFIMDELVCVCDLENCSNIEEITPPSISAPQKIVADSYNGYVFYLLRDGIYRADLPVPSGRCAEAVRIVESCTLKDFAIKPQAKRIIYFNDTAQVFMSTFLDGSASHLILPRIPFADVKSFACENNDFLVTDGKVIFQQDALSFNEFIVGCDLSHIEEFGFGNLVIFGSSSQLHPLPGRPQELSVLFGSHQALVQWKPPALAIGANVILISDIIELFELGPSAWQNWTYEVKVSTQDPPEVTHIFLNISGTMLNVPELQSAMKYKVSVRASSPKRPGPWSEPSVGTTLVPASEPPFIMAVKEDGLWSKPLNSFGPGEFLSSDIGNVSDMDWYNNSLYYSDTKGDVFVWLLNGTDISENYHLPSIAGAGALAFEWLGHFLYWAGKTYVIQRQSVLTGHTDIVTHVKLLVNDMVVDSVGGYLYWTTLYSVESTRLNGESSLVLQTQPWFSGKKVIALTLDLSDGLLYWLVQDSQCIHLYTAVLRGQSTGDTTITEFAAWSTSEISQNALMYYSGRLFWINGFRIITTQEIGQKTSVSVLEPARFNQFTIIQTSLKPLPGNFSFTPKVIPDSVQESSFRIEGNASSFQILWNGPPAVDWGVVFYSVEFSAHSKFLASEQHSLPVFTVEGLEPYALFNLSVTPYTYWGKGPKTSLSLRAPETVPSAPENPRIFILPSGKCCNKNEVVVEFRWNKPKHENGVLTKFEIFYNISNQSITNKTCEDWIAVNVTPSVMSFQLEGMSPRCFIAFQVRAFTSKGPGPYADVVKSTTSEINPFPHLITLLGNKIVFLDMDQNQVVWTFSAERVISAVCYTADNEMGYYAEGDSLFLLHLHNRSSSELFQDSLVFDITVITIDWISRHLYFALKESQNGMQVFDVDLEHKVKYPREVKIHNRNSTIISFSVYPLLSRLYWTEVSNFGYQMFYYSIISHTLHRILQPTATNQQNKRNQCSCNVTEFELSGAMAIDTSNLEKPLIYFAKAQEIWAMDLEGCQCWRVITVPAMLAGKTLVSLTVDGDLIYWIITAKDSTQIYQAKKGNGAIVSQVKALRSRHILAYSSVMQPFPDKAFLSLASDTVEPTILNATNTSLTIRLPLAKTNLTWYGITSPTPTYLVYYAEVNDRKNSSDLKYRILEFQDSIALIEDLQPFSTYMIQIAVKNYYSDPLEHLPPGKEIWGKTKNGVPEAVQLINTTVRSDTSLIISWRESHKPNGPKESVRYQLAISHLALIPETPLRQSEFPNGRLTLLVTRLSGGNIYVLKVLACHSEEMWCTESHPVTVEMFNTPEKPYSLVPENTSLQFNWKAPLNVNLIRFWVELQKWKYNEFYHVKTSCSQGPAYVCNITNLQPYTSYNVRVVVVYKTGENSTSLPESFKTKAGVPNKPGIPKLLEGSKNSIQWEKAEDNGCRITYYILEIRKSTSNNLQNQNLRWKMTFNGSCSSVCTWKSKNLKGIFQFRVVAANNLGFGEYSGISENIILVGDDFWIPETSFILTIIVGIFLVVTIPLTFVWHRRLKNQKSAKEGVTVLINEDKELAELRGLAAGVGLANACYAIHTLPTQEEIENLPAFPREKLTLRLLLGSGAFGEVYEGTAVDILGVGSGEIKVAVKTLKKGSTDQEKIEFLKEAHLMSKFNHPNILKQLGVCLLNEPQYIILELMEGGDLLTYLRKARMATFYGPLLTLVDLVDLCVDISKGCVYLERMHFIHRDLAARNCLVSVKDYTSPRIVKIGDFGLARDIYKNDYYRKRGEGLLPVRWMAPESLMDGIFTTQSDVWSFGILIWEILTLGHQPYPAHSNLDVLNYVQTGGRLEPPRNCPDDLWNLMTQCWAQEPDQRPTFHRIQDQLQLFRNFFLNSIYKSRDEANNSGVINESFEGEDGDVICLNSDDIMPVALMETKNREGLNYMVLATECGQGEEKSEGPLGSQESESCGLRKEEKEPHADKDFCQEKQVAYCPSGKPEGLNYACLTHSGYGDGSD
assay_name: ROS1 kinase inhibitory activity evaluation (mobility shift, EZ Reader II)
Assay type: biochemical
details: ROS1 25 pg/μL, FL-Peptide 22 substrate, three separate measurements
# IC50 annotations

smiles_str=C[C@@H](Nc1ccc2ncc(-c3ccc(OC[C@@H]4CCN4)c(F)c3)n2n1)c1cccc(F)c1 measurement_type=IC50 recorded_result="< 1 nM"

Lab book: IC50 of `CN(Cc1cccc(C#N)c1)c1ccc2ncc(-c3ccc(N4C[C@@H](N)CC4=O)cc3)n2n1` noted as 1 to 10 nM

Lab book: IC50 of `N#Cc1cccc(COc2ccc3ncc(-c4ccc(N5C[C@@H](N)CC5=O)cc4)n3n2)c1` noted as 1 to 10 nM

Lab book: IC50 of `CC[C@H](N)COc1ccc(-c2cnc3ccc(N[C@H](C)c4cccc(F)c4)nn23)cc1` noted as < 1 nM

Lab book: IC50 of `C[C@@H](Nc1ccc2ncc(-c3ccc(OC[C@@H](N)CO)cc3)n2n1)c1cccc(F)c1` noted as < 1 nM

Lab book: IC50 of `C[C@@H](Nc1ccc2ncc(-c3cccc(OC[C@@H]4CCCN4)c3)n2n1)c1cccc(F)c1` noted as < 1 nM

Lab book: IC50 of `CN(Cc1cc(F)ccc1F)c1ccc2ncc(-c3ccc(N4C[C@@H](N)CC4=O)cc3)n2n1` noted as 1 to 10 nM

Lab book: IC50 of `C[C@@H](Nc1ccc2ncc(-c3ccc(O[C@H]4CCC[C@H]4N)cc3)n2n1)c1cccc(F)c1` noted as < 1 nM

----------
# pIC50 annotations
subject_of_test: ROS1 (Homo sapiens, UniProt P08922)
Construct: purchased Carna Biosciences 08-163
assay_name: ROS1 kinase inhibitory activity evaluation (mobility shift, EZ Reader II)
Type: biochemical
details: ROS1 25 pg/μL, FL-Peptide 22 substrate, three separate measurements
pIC50: −log10 of the molar value.

Some solved cases for reference:
compound=C[C@@H](Oc1ccc2ncc(-c3ccc(OCC4CCNCC4)cc3)n2n1)c1cccc(F)c1 recorded_result="8.00 to 9.00"
compound=N[C@H]1CC(=O)N(c2ccc(-c3cnc4ccc(OCc5cccc(F)c5)nn34)cc2)C1 recorded_result="> 9.00"
compound=C[C@@H](Nc1ccc2ncc(-c3ccc(OCC4(N)CC4)cc3)n2n1)c1cccc(F)c1 recorded_result="> 9.00"
compound=C[C@@H](Nc1ccc2ncc(-c3ccc(O[C@@H]4CCC[C@@H]4N)cc3)n2n1)c1cccc(F)c1 recorded_result="> 9.00"

Lab book: pIC50 of `CN(Cc1cc(F)cc(F)c1)c1ccc2ncc(-c3ccc(N4C[C@@H](N)CC4=O)cc3)n2n1` noted as > 9.00

Lab book: pIC50 of Cc1cc(-c2cnc3ccc(OC(C)c4cncc(F)c4)nn23)ccc1N1C[C@@H](N)CC1=O (some centres unmarked) noted as 8.00 to 9.00

Lab book: pIC50 of `CNCCOc1cccc(-c2cnc3ccc(N[C@H](C)c4cccc(F)c4)nn23)c1` noted as 8.00 to 9.00

Lab book: pIC50 of `C[C@@H](Nc1ccc2ncc(-c3ccc(OCCNC4CC4)cc3)n2n1)c1cccc(F)c1` noted as > 9.00

----------
subject_of_test: ROS1 (Homo sapiens, UniProt P08922)
Construct: purchased Carna Biosciences 08-163
assay_name: ROS1 autophosphorylation inhibitory activity evaluation (ADP-Glo)
Type: biochemical
details: 200 nM inactive ROS1, ATP 1 mM, 25° C. 1.5 hours, ADP generated, four separate measurements
Experimental: Fifty mM HEPES (pH 7.5), 10 mM MgCl2, 0.01% Brij-58, and 2.5 mM DTT were mixed to prepare an enzymatic reaction solution. […] ATP (final concentration: 1 mM) was further added thereto at a concentration of 2.5 μL/well. […] The amount of ADP generated by the autophosphorylation of ROS1 was measured using EnVision (PerkinElmer Japan). […] IC50 values were calculated by curve fitting using GraphPad Prism version 4 (GraphPad software).
measurement_type: IC50

Some solved cases for reference:
compound="NC1CCN(c2ccc(-c3cnc4ccc(OCc5cccc(F)c5)nn34)cc2)C1=O (centres unmarked)" measurement_type=IC50 recorded_result="20 to 100 nM"
compound=C[C@@H](Nc1ccc2ncc(-c3ccc(OCCN(C)C)cc3)n2n1)c1cccc(F)c1 measurement_type=IC50 recorded_result="< 20 nM"
compound=CNCCOc1ccc(-c2cnc3ccc(N[C@H](C)c4cccc(F)c4)nn23)cn1 measurement_type=IC50 recorded_result="< 20 nM"
compound=C[C@@H](Nc1ccc2ncc(-c3ccc(OCCNCCO)cc3)n2n1)c1cccc(F)c1 measurement_type=IC50 recorded_result="< 20 nM"
compound="CC1(N)CN(c2ccc(-c3cnc4ccc(OCc5cccc(F)c5)nn34)cc2)C(=O)C12CC2 (centres unmarked)" measurement_type=IC50 recorded_result="20 to 100 nM"
compound=CN(Cc1cccc(F)c1F)c1ccc2ncc(-c3ccc(N4C[C@@H](N)CC4=O)cc3)n2n1 measurement_type=IC50 recorded_result="< 20 nM"
compound=C[C@H](N)COc1ccc(-c2cnc3ccc(N[C@H](C)c4cccc(F)c4)nn23)cn1 measurement_type=IC50 recorded_result="< 20 nM"

Please turn your attention to the following entry.
Lab book: IC50 of `CN1CCC[C@H]1COc1cccc(-c2cnc3ccc(NCc4ccccc4)nn23)c1` noted as 20 to 100 nM

----------
Test system: HCC78 cells having ROS1 fusion gene
assay_name: HCC78 cell growth assay (CellTiter-Glo)
Type: cell-based
details: Homo sapiens, HCC78, 72 h, 72 hours culture, 2% FBS medium, luminescence, four separate measurements; read-out: growth inhibitory effect on HCC78 cells having ROS1 fusion gene IC50
pIC50: −log10 of the molar value.
measurement_type: pIC50

Some solved cases for reference:
compound=C[C@@H](Oc1ccc2ncc(-c3ccc(OC[C@@H]4CCCN4)cc3)n2n1)c1cccc(F)c1 recorded_result="7.00 to 7.70"
compound="CNC(C)COc1ccc(-c2cnc3ccc(N[C@H](C)c4cccc(F)c4)nn23)cc1 (some centres unmarked)" recorded_result="> 7.70"
compound=C[C@@H](Nc1ccc2ncc(-c3ccc(O[C@@H]4CCNC4)cc3)n2n1)c1cccc(F)c1 recorded_result="7.00 to 7.70"

Lab book: pIC50 of `C[C@@H](Nc1ccc2ncc(-c3ccc(OCCCN)cc3)n2n1)c1cccc(F)c1` noted as 7.00 to 7.70

Lab book: pIC50 of `C[C@@H](Nc1ccc2ncc(-c3ccc(OCCCN(C)C)cc3)n2n1)c1cccc(F)c1` noted as 7.00 to 7.70

----------
subject_of_test: ROS1 (Homo sapiens, UniProt P08922)
Construct: purchased Carna Biosciences 08-163
assay_name: ROS1 autophosphorylation inhibitory activity evaluation (ADP-Glo)
Assay type: biochemical
details: 200 nM inactive ROS1, ATP 1 mM, 25° C. 1.5 hours, ADP generated, four separate measurements
# IC50 annotations

Some solved cases for reference:
molecule="CNCCOc1cccc(-c2cnc3ccc(N[C@H](C)c4cccc(F)c4)nn23)c1 [Example 58]" recorded_result="< 20 nM"
molecule="CC(Oc1ccc2ncc(-c3ccc(N4C[C@@H](N)CC4=O)cc3)n2n1)c1cccc(F)c1F (some centres unmarked) [Example 102]" recorded_result="< 20 nM"
molecule="CN(Cc1cc(F)ccc1F)c1ccc2ncc(-c3ccc(N4C[C@@H](N)CC4=O)cc3)n2n1 [Example 97]" recorded_result="20 to 100 nM"
molecule="C[C@@H](Nc1ccc2ncc(-c3ccc(OC[C@@H]4CCCN4)c(C#N)c3)n2n1)c1cccc(F)c1 [Example 48]" recorded_result="< 20 nM"
molecule="C[C@@H](Oc1ccc2ncc(-c3ccc(OC4CCNCC4)cc3)n2n1)c1cccc(F)c1 [Example 15]" recorded_result="20 to 100 nM"
molecule="C[C@@H](Nc1ccc2ncc(-c3ccc(N4C[C@@H](N)CC4=O)cc3)n2n1)c1cccc(F)c1 [Example 90]" recorded_result="< 20 nM"
molecule="COc1cc(N2C[C@@H](N)CC2=O)ccc1-c1cnc2ccc(N(C)Cc3cccc(F)c3)nn12 [Example 85]" recorded_result="< 20 nM"

Please turn your attention to the following entry.
Lab book: IC50 of NCC1CC(=O)N(c2ccc(-c3cnc4ccc(OCc5cccc(F)c5)nn34)cc2)C1 (centres unmarked) [Example 74] noted as 100 to 150 nM

----------
Test system: HCC78 cells having ROS1 fusion gene
assay_name: HCC78 cell growth assay (CellTiter-Glo)
Assay type: cell-based
details: Homo sapiens, HCC78, 72 h, 72 hours culture, 2% FBS medium, luminescence, four separate measurements; read-out: growth inhibitory effect on HCC78 cells having ROS1 fusion gene IC50
# IC50 annotations

Some solved cases for reference:
compound="CN(Cc1cccc(F)c1)c1ccc2ncc(-c3ccc(OC[C@@H]4CCCN4)cc3)n2n1 [Example 10]" subject_of_test="HCC78 cells having ROS1 fusion gene" recorded_result="100 to 600 nM"
compound="c1ccc(CNc2ccc3ncc(-c4ccc(OC[C@@H]5CCNC5)cc4)n3n2)cc1 [Example 5]" subject_of_test="HCC78 cells having ROS1 fusion gene" recorded_result="20 to 100 nM"
compound="NCCOc1ccc(-c2cnc3ccc(OCc4cccc(F)c4)nn23)cc1 [Example 14]" subject_of_test="HCC78 cells having ROS1 fusion gene" recorded_result="100 to 600 nM"
compound="C[C@@H](Nc1ccc2ncc(-c3cccc(OCCN)c3)n2n1)c1cccc(F)c1 [Example 67]" subject_of_test="HCC78 cells having ROS1 fusion gene" recorded_result="20 to 100 nM"
compound="CC(Oc1ccc2ncc(-c3ccc(N4C[C@@H](N)CC4=O)cc3)n2n1)c1cc(Cl)n(C)n1 (some centres unmarked) [Example 113]" subject_of_test="HCC78 cells having ROS1 fusion gene" recorded_result="< 20 nM"
compound="NC1CC(=O)N(c2ccc(-c3cnc4ccc(NCc5ccccc5)nn34)cc2)C1 (centres unmarked) [Example 72]" subject_of_test="HCC78 cells having ROS1 fusion gene" recorded_result="< 20 nM"
compound="C[C@@H](Nc1ccc2ncc(-c3ccc(SC[C@@H]4CCCN4)cc3)n2n1)c1ccccc1 [Example 20]" subject_of_test="HCC78 cells having ROS1 fusion gene" recorded_result="100 to 600 nM"
compound="c1ccc(CNc2ccc3ncc(-c4ccc(OC[C@@H]5CCCN5)cc4)n3n2)cc1 [Example 1]" subject_of_test="HCC78 cells having ROS1 fusion gene" recorded_result="20 to 100 nM"

Lab book: IC50 of C[C@@H](Nc1ccc2ncc(-c3ccc(F)c(OC[C@@H]4CCN4)c3)n2n1)c1cccc(F)c1 [Example 64] noted as 100 to 600 nM

Lab book: IC50 of CN(Cc1cccc(C#N)c1)c1ccc2ncc(-c3ccc(N4C[C@@H](N)CC4=O)cc3)n2n1 [Example 121] noted as 20 to 100 nM

Lab book: IC50 of CC(Oc1ccc2ncc(-c3ccc(N4C[C@@H](N)CC4=O)cc3)n2n1)c1cc(F)ccc1-n1nccn1 (some centres unmarked) [Example 114] noted as 20 to 100 nM

Lab book: IC50 of CN1CCC[C@H]1COc1cccc(-c2cnc3ccc(NCc4ccccc4)nn23)c1 [Example 8] noted as 20 to 100 nM

Lab book: IC50 of C[C@@H](Nc1ccc2ncc(-c3ccc(O[C@H]4C[C@H](N)C4)cc3)n2n1)c1cccc(F)c1 [Example 51] noted as 20 to 100 nM

Lab book: IC50 of CN(Cc1ccccc1)c1ccc2ncc(-c3ccc(N4C[C@@H](N)CC4=O)cc3)n2n1 [Example 94] noted as 100 to 600 nM
